Biological target: T1, ARHGEF11, O15085
T1 sequence (O15085 42-136, limits assumed, looked up): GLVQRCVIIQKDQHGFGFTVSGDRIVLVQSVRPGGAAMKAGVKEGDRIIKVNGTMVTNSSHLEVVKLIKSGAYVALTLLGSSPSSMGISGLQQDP
Test: holdup assay
Parameters: key: below the threshold = too weak to quantify, mostly under pKd 3.1 to 4
Settings: plain residues with an end cap or a label only (N-terminal biotin on a linker: ttds)
endpoint-label: pKd
# print the numeric value only

Past entries and their recorded results:
Recall and state the measured pKd for KKYVDAETSL [SLC4A7, Q9Y6M7] .
3.97

Recall and state the measured pKd for SGSRPSATVV [HPV73-E6, Q82005] .
3.98

---
Recall and state the measured pKd for SKPTRRETEV [HPV35-E6, P27228] .
4.11

Values were extracted from paper PMC9482650.
